experiment: Solubility in CPME (cyclopentyl methyl ether), dissolved to saturation at 25° C.; assay type: physicochemical; settings: dissolved to saturation in CPME (cyclopentyl methyl ether) at 25° C.
Where a SMILES comes first, the peptide text is derived from it.
PARAMETER: solubility (mM)
The reply should contain only the number, in mM.

Quick one: solubility for CC(C)C[C@H](NC(=O)[C@@H](N)Cc1ccccc1)C(=O)NCC(=O)O [H-Phe-Leu-Gly-OH] (H-Phe-Leu-Gly-OH) ?
0.9
